Test: pharmacokinetic study, single i.p. dose, plasma by LC/MS/MS
Format: in vivo, CD-1 mice
Condition Summary: male, CD-1, mouse, plasma, ip, 15 mg/kg, 15 mg/kg i.p., mean of 3 mice; read-out: Cmax

{"Molecule": "CN1CC(=Cc2ccccn2)C(=O)C(=Cc2ccccn2)C1 [UBS109]", "Cmax [ng/mL]": 619}

Reference source: paper PMC6281413
